Measured values drawn from ChEMBL document CHEMBL1157953 for this set.

# Assay Method Text: Cytotoxicity against MDCK cells after 3 days by MTT reduction assay
# Assay type: cell-based, Canis lupus familiaris
# Condition Parameters: dog
Quantity Kind: CC50 at 72 h (µg/mL)
Please respond with the number in µg/mL and leave the unit unwritten.

# compound O=C(Oc1cc(O)c2c(c1)OC(c1cc(O)c(O)c(O)c1)CC2)c1cc(O)c(O)c(O)c1 (stereo unspecified) ; its CC50 at 72 h = 110

---

# Assay Method Text: Cytotoxicity against african green monkey Vero cells after 3 days by MTT reduction assay
# Type: cell-based
# Condition Parameters: chlorocebus sabaeus, read-out: MNCC
Quantity Kind: MNTC at 72 h
Give me the value, and tack the unit on after it.

The compound O=C(Oc1cc(O)c2c(c1)OC(c1cc(O)c(O)c(O)c1)CC2)c1cc(O)c(O)c(O)c1 (stereo unspecified) showed MNTC at 72 h equal to 31.3 µg/mL
